Experimental system: Perilipin-5 (Homo sapiens) + 1-acylglycerol-3-phosphate O-acyltransferase ABHD5 (Homo sapiens) (UniProt Q00G26+Q8WTS1)
Sequence (Q00G26 whole entry, looked up): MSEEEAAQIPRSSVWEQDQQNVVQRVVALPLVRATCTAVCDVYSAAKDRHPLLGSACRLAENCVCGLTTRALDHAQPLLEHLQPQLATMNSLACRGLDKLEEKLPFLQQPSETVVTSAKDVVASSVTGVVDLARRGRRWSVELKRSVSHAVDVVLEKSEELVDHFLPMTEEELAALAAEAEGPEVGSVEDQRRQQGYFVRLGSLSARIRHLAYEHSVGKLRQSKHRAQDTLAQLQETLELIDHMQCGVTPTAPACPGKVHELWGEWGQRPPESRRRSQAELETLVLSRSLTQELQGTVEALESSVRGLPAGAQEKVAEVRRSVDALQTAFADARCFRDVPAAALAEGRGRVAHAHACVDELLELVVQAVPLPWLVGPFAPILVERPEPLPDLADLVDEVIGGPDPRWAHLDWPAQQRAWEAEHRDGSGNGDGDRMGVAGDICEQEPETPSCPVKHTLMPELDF
Sequence (Q8WTS1 whole entry, looked up): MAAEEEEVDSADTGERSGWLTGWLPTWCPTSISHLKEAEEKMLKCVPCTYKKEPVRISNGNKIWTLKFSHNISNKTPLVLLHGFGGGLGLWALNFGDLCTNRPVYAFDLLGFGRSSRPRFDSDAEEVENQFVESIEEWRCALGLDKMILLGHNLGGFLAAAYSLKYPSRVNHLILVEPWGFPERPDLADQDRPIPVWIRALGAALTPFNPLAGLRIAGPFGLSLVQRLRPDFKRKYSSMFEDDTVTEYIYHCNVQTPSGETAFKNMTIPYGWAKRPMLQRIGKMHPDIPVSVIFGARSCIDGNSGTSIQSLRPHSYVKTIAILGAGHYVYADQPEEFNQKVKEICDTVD
Method notes: ABHD5-PLIN5 interaction inhibitors, primary screen, cell lysate, split luciferase complementation, luminescence (AID 602281);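 note: 0% = DMSO only wells and the 100% control is not disclosed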
Condition label: Split G. princeps luciferase complementation, 4 h, at 4 µM
In all, about 360,000 compounds went through this assay and about 2,900 (0.81%) were called active.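 Rule for the calls: active = inhibition above the mean inhibition across every tested compound plus 3 SD (cut at about 22% in these data); inactive = the rest.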 This excerpt belongs to a sample that is enriched for actives.
Choose one outcome from this list and give only that: active, inactive

These recorded examples may help you get a feel for the data.
Compound: CCNC(=O)CC1C(=O)N(c2ccc(OC)cc2)C(=O)N1CCOC (stereo not given)
Label class: inactive

Compound: COc1ccc(Cl)cc1NC(=O)CCS(=O)(=O)c1ccc(Br)cc1
Label class: inactive

Compound: FC(F)(F)C1CCCN(c2nsc3ccccc23)C1 (stereo not given)
Label class: active

Compound: CCCCN1C(N)=NC[C@@H]1Cc1ccccc1
Label class: inactive

Compound: Cn1c2ccccc2c2cc(/C=C(\NC(=O)c3ccccc3)C(=O)NCC(=O)O)ccc21
Label class: inactive

Compound: Cc1ccsc1C(=O)NC1CCCCC1C (stereo not given)
Label class: inactive

Inquiry: Hi, do you know how CC1(C)CCSC(/C=C/c2ccccc2)=N1 came out in this test?
Reply text: active

Inquiry: Now consider CCC(=O)N1CCc2cc(Br)c(S(=O)(=O)NCCN3CCCCC3CC)cc21 (stereo not given) and answer again.
Reply text: inactive

Inquiry: Now consider CC(=O)NC1CCN(CC(=O)Nc2nccs2)CC1 and answer again.
Reply text: inactive

---

Experimental system: Perilipin-5 (Homo sapiens) + 1-acylglycerol-3-phosphate O-acyltransferase ABHD5 (Homo sapiens) (UniProt Q00G26+Q8WTS1)
Method notes: ABHD5-PLIN5 interaction inhibitors, primary screen, cell lysate, split luciferase complementation, luminescence (AID 602281);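 note: 0% = DMSO only wells and the 100% control is not disclosed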
Condition label: Split G. princeps luciferase complementation, 4 h, at 4 µM
Out of some 360,000 compounds screened, about 2,900 (0.81%) were called active.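 Rule for the calls: active = inhibition above the mean inhibition across every tested compound plus 3 SD (cut at about 22% in these data); inactive = the rest.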 This is one part of a sample in which actives are shown more often than they occur.
Choose one outcome from this list and give only that: True for active, False for inactive

Molecule: Cc1cccc(C)c1NC(=O)C(Cl)C(=O)c1ccccc1 (stereo not given)
Label class: True
--
Molecule: O=C(c1ccc2c(c1)C(=O)N(c1ccc(Cl)cc1)C2=O)N1CCN(c2ccccn2)CC1
Label class: False
--
Molecule: CNS(=O)(=O)c1cccc(C(=O)OCCCC(=O)c2ccccc2)c1
Label class: False
--
Molecule: O=C(Cn1ncc(N2CCCC2)c(Br)c1=O)c1ccc(Cl)cc1
Label class: False
--
Molecule: CCn1c(SC)nc(O)c(C(c2ccc(OC)c(O)c2)c2c(O)nc(SC)n(CC)c2=O)c1=O
Label class: True
--
Molecule: COc1ccc(C(=O)c2c3ccc([N+](=O)[O-])cc3[n+]([O-])n2CCCN)cc1
Label class: False
--
Molecule: O=C(NCCCN1CCOCC1)C1CCCN(S(=O)(=O)N2CCCCC2)C1 (stereo not given)
Label class: False
--
Molecule: Cc1ccnc(NC(=O)c2ccc(Cl)c([N+](=O)[O-])c2)c1
Label class: False

Inquiry: Hi, do you know how O=C(NCc1ccco1)c1cnn2c(C(F)(F)F)cc(-c3ccco3)nc12 came out in this test?
Reply text: False

Inquiry: Now consider CCSc1nc(O)c(C(c2cccc(OC)c2)c2c(O)nc(SCC)[nH]c2=O)c(=O)[nH]1 and answer again.
Reply text: False

Inquiry: Now consider O=C1C(Cl)=C(Oc2ccccc2)C(=O)c2ccccc21 and answer again.
Reply text: True

Inquiry: Now consider O=C(c1cc2sccc2n1Cc1ccc(F)cc1)N1CCc2ccccc21 and answer again.
Reply text: False

Inquiry: Now consider O=C(O)c1ccc2c(=O)n3c(nc2c1)/C(=C/c1ccc(Cl)c([N+](=O)[O-])c1)CC3 and answer again.
Reply text: False

---

Experimental system: Perilipin-5 (Homo sapiens) + 1-acylglycerol-3-phosphate O-acyltransferase ABHD5 (Homo sapiens) (UniProt Q00G26+Q8WTS1)
Method notes: ABHD5-PLIN5 interaction inhibitors, primary screen, cell lysate, split luciferase complementation, luminescence (AID 602281);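 note: 0% = DMSO only wells and the 100% control is not disclosed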
Condition label: Split G. princeps luciferase complementation, 4 h, at 4 µM, stronger effect = higher value
Among all 360,000 compounds or so, about 2,900 (0.81%) were called active. This excerpt belongs to a sample that is enriched for actives.
Quick list: inhibition per entry.
Record the value in %, omitting the unit from your answer.

Some entries whose results are on file:
Molecule: NC(=O)C1CCN(C(=O)c2ccc(-c3ccccc3)cc2)CC1
Reading: 5.48
--
Molecule: CC1(Oc2ccccc2-c2ccno2)CCN(Cc2ccc(-c3ccccc3)o2)C1 (stereo not drawn)
Reading: 24.9
--
Molecule: COc1ccccc1NC(=O)CC(NCCN(C)C)C(=O)O (stereo not drawn)
Reading: 0.5
--
Molecule: CC1(Oc2cccc(F)c2)CCN(Cc2ccccc2OC(F)F)C1 (stereo not drawn)
Reading: -9.44
--
Molecule: CSCCC(C(=O)NC(C)(C)C)n1c(-c2ccccc2)nc2ccccc21 (stereo not drawn)
Reading: -13.8
--
Molecule: CCCc1nc2ccccc2n1C(C)C(=O)NC(C)(C)C (stereo not drawn)
Reading: 5.62
--
Molecule: NC(=O)c1ncn([C@@H]2O[C@H](CNCc3cnc(N4CCOCC4)s3)[C@@H](O)[C@H]2O)n1
Reading: -2.34
--
Molecule: COc1cccc(-c2sc3ccc(OC)cc3c2-c2ccc(OCCN3CCCCC3)cc2)c1
Reading: 14.8

Inquiry: Need inhibition, item O=C(O)CCn1cc(/C=C/C(=O)c2ccc(Cl)cc2)c(-c2cccc(Br)c2)n1
Reply text: 22.9

Inquiry: Now consider COc1ccccc1-c1sc2ccccc2c1-c1ccc(Br)nc1 and answer again.
Reply text: -7.49

Inquiry: Now consider COC(=O)[C@@H]1CCCN1C(=O)c1cc(COc2cccc3cccnc23)on1 and answer again.
Reply text: -0.57

Inquiry: Now consider COc1ccc(CN2CCC(C)(Oc3cccc(F)c3)C2)c2ccccc12 (stereo not drawn) and answer again.
Reply text: 1.04

Inquiry: Now consider CCC(C(=O)NC(C)(C)C)n1c(-c2ccccc2)nc2ccccc21 (stereo not drawn) and answer again.
Reply text: 9.54

Inquiry: Now consider CCN(CC)CCN(C(=O)c1ccc2c(c1)CCCC2)c1nc2c(OC)cccc2s1 and answer again.
Reply text: 25

Inquiry: Now consider O=C(C(=O)N1CCc2ccccc2C1)c1c[nH]c2ccccc12 and answer again.
Reply text: 0.81

Inquiry: Now consider COc1ccc(NC(=O)CN(C)C(=O)/C=C/c2cn(Cc3ccccc3)nc2-c2cccnc2)cc1 and answer again.
Reply text: 0.58

Inquiry: Now consider CC(C)(C)NC(=O)C(CCc1ccccc1)n1c(=O)c(-c2ccccc2)nc2ccccc21 (stereo not drawn) and answer again.
Reply text: 22.9

Inquiry: Now consider CCOC(=O)N1CCN(S(=O)(=O)c2ccc3c(c2)C(C)C(=O)N3)CC1 (stereo not drawn) and answer again.
Reply text: 2.99

---

Quick list: inhibition per entry.
Experimental system: Perilipin-5 (Homo sapiens) + 1-acylglycerol-3-phosphate O-acyltransferase ABHD5 (Homo sapiens) (UniProt Q00G26+Q8WTS1)
Method notes: ABHD5-PLIN5 interaction inhibitors, primary screen, cell lysate, split luciferase complementation, luminescence (AID 602281);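 note: 0% = DMSO only wells and the 100% control is not disclosed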
Condition label: Split G. princeps luciferase complementation, 4 h, at 4 µM, stronger effect = higher value
In all, about 360,000 compounds went through this assay and about 2,900 (0.81%) were called active. The sample as a whole holds a higher share of actives than the screen did.
Record the value in %, omitting the unit from your answer.

Some entries whose results are on file:
Compound: Cc1ccc(OCC(=O)c2cc(C)n(Cc3ccco3)c2C)c([N+](=O)[O-])n1
Result units: %
Reading: 4.39
//
Compound: Cc1ccc(C(=O)CSc2nc3ccccc3c(=O)n2N)o1
Result units: %
Reading: -5.64
//
Compound: COc1cccc(NCCC(=O)c2cccc([N+](=O)[O-])c2)c1
Result units: %
Reading: -2.37
//
Compound: Cc1cccc(CN2CCN(C3CN(Cc4cn(Cc5ccccc5F)nn4)S(=O)(=O)C3)CC2)c1 (stereo not drawn)
Result units: %
Reading: 5.46
//
Compound: O=c1oc2c(CN3CCCCC3)c(O)ccc2c2c1CCCCC2
Result units: %
Reading: -1.69

Inquiry: Need inhibition, item O=C(NC1CCCCC1)C(c1cc2ccccc2o1)n1c(=O)c(-c2ccco2)nc2ccccc21 (stereo not drawn)
Reply text: 78.2

Inquiry: Now consider Nn1c(SCc2ccccc2)nnc1C1CCCCC1 and answer again.
Reply text: 7.84

Inquiry: Now consider N#Cc1ccccc1S(=O)(=O)N1CCN(C(=O)c2cc(-c3ccccc3)nn2-c2ccccc2)CC1 and answer again.
Reply text: -8.95

Inquiry: Now consider COC(=O)C[C@H]1C=C[C@H](NC(=O)c2ccc(F)cc2)[C@@H](CO)O1 and answer again.
Reply text: 7.9

Inquiry: Now consider Cc1ccc(Cn2c(C)nc3c(c2=O)c2nc4ccccc4nc2n3Cc2ccco2)cc1 and answer again.
Reply text: 65.3

Inquiry: Now consider CCC(CC)C(C(=O)NC1CCCC1)N1CCN(c2cc(C)nc3ccccc23)CC1 (stereo not drawn) and answer again.
Reply text: 1.05

Inquiry: Now consider CCC(C(=O)Nc1c(C)cccc1C)n1c(-c2cc(C)cs2)nc2ccccc21 (stereo not drawn) and answer again.
Reply text: -1.93

Inquiry: Now consider Cc1cccc(C)c1NC(=O)CCCSc1nnc(-c2ccco2)n1-c1ccccc1 and answer again.
Reply text: -1.49
